Numbers sourced from patent US20060128614A1.

What MIC against E. coli was measured for each of the following?
test system: E. coli; format: cell-based, Escherichia coli; conditions: 18 h
Non-standard residues stand in square brackets, D forms with d. Residues, ends and D or L forms follow the SMILES beside them. 2Nal = N[C@@H](Cc1ccc2ccccc2c1)C(=O)O
Numbers only, in µg/mL.

>  <COMPOUND>
CC[C@H](C)[C@H](NC(=O)[C@H](Cc1ccc2ccccc2c1)NC(=O)[C@H](CCCCN)NC(C)=O)C(=O)N[C@@H](CCCCN)C(=O)N[C@@H](Cc1ccc2ccccc2c1)C(=O)N[C@@H](CCCNC(=N)N)C(N)=O [Pac-403 L, K (2-Nal) I K (2-Nal) R] (Ac-K[2Nal]IK[2Nal]R-NH2)

>  <MIC against E. coli [µg/mL]>
24

$$$$

Now examine the next entry.
Here CC[C@H](C)[C@@H]1NC(=O)[C@H](Cc2ccc3ccccc3c2)NC(=O)[C@H](CCCNC(=N)N)NC(=O)[C@H](C(C)C)NC(=O)[C@H](Cc2ccc3ccccc3c2)NC(=O)[C@H](CCCNC(=N)N)NC(=O)[C@H](CCCNC(=N)N)NC(=O)[C@H](Cc2ccc3ccccc3c2)NC(=O)[C@H](CCCCN)NC1=O [Pac-625 C, K (2-Nal) R R (2-Nal) V R (2-Nal) I] (cyclo(K[2Nal]RR[2Nal]VR[2Nal]I); ring closure inferred) was tested on E. coli, and its MIC against E. coli came to 64

---

tested on: human red blood cells (RBC); type: cell-based
Non-standard residues stand in square brackets, D forms with d. Residues, ends and D or L forms follow the SMILES beside them. 2Nal = N[C@@H](Cc1ccc2ccccc2c1)C(=O)O
METRIC: % lysis @ 5 μg/ml (%)
One number for each entry, in %.

# example entries with known answers
>  <COMPOUND>
CC[C@H](C)[C@H](NC(=O)[C@H](Cc1ccc2ccccc2c1)NC(=O)[C@H](CCCNC(=N)N)NC(=O)[C@@H](NC(=O)[C@H](Cc1ccc2ccccc2c1)NC(=O)[C@H](CCCNC(=N)N)NC(=O)[C@H](CCCNC(=N)N)NC(=O)[C@H](Cc1ccc2ccccc2c1)NC(=O)[C@H](CCCCN)NC(C)=O)C(C)C)C(N)=O [Pac-625 L, K (2-Nal) R R (2-Nal) V R (2-Nal) I] (Ac-K[2Nal]RR[2Nal]VR[2Nal]I-NH2)

>  <% lysis @ 5 μg/ml, %>
0.82

$$$$
>  <COMPOUND>
CC[C@H](C)[C@H](NC(C)=O)C(=O)N[C@@H](Cc1ccc2ccccc2c1)C(=O)N[C@@H](CCCNC(=N)N)C(=O)N[C@H](C(=O)N[C@@H](Cc1ccc2ccccc2c1)C(=O)N[C@@H](CCCNC(=N)N)C(=O)N[C@@H](CCCNC(=N)N)C(=O)N[C@@H](Cc1ccc2ccccc2c1)C(=O)N[C@@H](CCCCN)C(N)=O)C(C)C [Pac-626 L, I (2-Nal) R V (2-Nal) R R (2-Nal) K] (Ac-I[2Nal]RV[2Nal]RR[2Nal]K-NH2)

>  <% lysis @ 5 μg/ml, %>
0.81

$$$$
>  <COMPOUND>
CC[C@H](C)[C@H](NC(=O)[C@H](Cc1ccc2ccccc2c1)NC(=O)[C@H](CCCNC(=N)N)NC(=O)[C@H](CCCNC(=N)N)NC(=O)[C@H](Cc1ccc2ccccc2c1)NC(=O)[C@H](CCCCN)NC(C)=O)C(N)=O [Pac-401 L, K (2-Nal) R R (2-Nal) I] (Ac-K[2Nal]RR[2Nal]I-NH2)

>  <% lysis @ 5 μg/ml, %>
0.85

$$$$

Now examine the next entry.
In plain terms, CC[C@H](C)[C@H](NC(=O)[C@H](Cc1ccc2ccccc2c1)NC(=O)[C@H](CCCCN)NC(C)=O)C(=O)N[C@@H](CCCCN)C(=O)N[C@@H](Cc1ccc2ccccc2c1)C(=O)N[C@@H](CCCNC(=N)N)C(N)=O [Pac-403 L, K (2-Nal) I K (2-Nal) R] (Ac-K[2Nal]IK[2Nal]R-NH2) has a documented % lysis @ 5 μg/ml of 0.74

---

What % lysis @ 50 μg/ml was measured for each of the following?
tested on: human red blood cells (RBC); format: cell-based
Non-standard residues stand in square brackets, D forms with d. Residues, ends and D or L forms follow the SMILES beside them. 2Nal = N[C@@H](Cc1ccc2ccccc2c1)C(=O)O
Numbers only, in %.

>  <COMPOUND>
CC[C@H](C)[C@H](NC(=O)[C@H](Cc1ccc2ccccc2c1)NC(=O)[C@H](CCCCN)NC(C)=O)C(=O)N[C@@H](CCCCN)C(=O)N[C@@H](Cc1ccc2ccccc2c1)C(=O)N[C@@H](CCCNC(=N)N)C(N)=O [Pac-403 L, K (2-Nal) I K (2-Nal) R] (Ac-K[2Nal]IK[2Nal]R-NH2)

>  <RESULT UNIT>
%

>  <% lysis @ 50 μg/ml>
7.2

$$$$
>  <COMPOUND>
CC[C@H](C)[C@H](NC(=O)[C@H](Cc1ccc2ccccc2c1)NC(=O)[C@H](CCCNC(=N)N)NC(=O)[C@@H](NC(=O)[C@H](Cc1ccc2ccccc2c1)NC(=O)[C@H](CCCNC(=N)N)NC(=O)[C@H](CCCNC(=N)N)NC(=O)[C@H](Cc1ccc2ccccc2c1)NC(=O)[C@H](CCCCN)NC(C)=O)C(C)C)C(N)=O [Pac-625 L, K (2-Nal) R R (2-Nal) V R (2-Nal) I] (Ac-K[2Nal]RR[2Nal]VR[2Nal]I-NH2)

>  <RESULT UNIT>
%

>  <% lysis @ 50 μg/ml>
7.3

$$$$
>  <COMPOUND>
CC[C@H](C)[C@H](NC(=O)[C@H](Cc1ccc2ccccc2c1)NC(=O)[C@H](CCCNC(=N)N)NC(=O)[C@H](CCCNC(=N)N)NC(=O)[C@H](Cc1ccc2ccccc2c1)NC(=O)[C@H](CCCCN)NC(C)=O)C(N)=O [Pac-401 L, K (2-Nal) R R (2-Nal) I] (Ac-K[2Nal]RR[2Nal]I-NH2)

>  <RESULT UNIT>
%

>  <% lysis @ 50 μg/ml>
6.8

$$$$

Now examine the next entry.
Here CC[C@H](C)[C@H](NC(C)=O)C(=O)N[C@@H](Cc1ccc2ccccc2c1)C(=O)N[C@@H](CCCNC(=N)N)C(=O)N[C@H](C(=O)N[C@@H](Cc1ccc2ccccc2c1)C(=O)N[C@@H](CCCNC(=N)N)C(=O)N[C@@H](CCCNC(=N)N)C(=O)N[C@@H](Cc1ccc2ccccc2c1)C(=O)N[C@@H](CCCCN)C(N)=O)C(C)C [Pac-626 L, I (2-Nal) R V (2-Nal) R R (2-Nal) K] (Ac-I[2Nal]RV[2Nal]RR[2Nal]K-NH2) was tested on human red blood cells (RBC), and its % lysis @ 50 μg/ml came to 7.2
